Below, each of the binders is paired with its reported Inhibition of binding (%) value.
molecular target: T1, human TSH receptor (full length), coated on tubes (human, UniProt P16473 22-764); experiment: inhibition of 125I-K1-70 Fab (competitor) binding to TSHR coated tubes; 0.3 µg/mL in assay buffer
T1 construct: TSHR coated tubes as described in WO2004/050708A2; The receptor is full length and held on plastic tubes through a mouse MAb to the TSHR; also called thyroid stimulating hormone receptor

Use the examples below as a reference point.
Binder | Inhibition of binding (%)
K1-70 IgG (antibody, V domains shown, Human IgG1 lambda purified from hetero-hybridoma supernatant; also called human monoclonal autoantibody to the TSHR with TSH antagonist activity) VH: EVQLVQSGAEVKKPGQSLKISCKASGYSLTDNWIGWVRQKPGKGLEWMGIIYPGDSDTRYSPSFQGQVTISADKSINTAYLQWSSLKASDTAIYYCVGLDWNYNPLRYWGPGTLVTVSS VL: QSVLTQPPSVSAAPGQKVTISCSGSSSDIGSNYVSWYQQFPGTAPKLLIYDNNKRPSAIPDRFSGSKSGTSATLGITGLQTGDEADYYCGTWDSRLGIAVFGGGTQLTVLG | 94.2%
K1-18 IgG (antibody, V domains shown, Human IgG1 kappa purified from hetero-hybridoma supernatant; also called human monoclonal autoantibody to the TSHR with TSH agonist activity) VH: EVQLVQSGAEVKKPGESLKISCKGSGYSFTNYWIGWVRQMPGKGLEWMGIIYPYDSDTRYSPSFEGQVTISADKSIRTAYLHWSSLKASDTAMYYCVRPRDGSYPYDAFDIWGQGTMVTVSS VL: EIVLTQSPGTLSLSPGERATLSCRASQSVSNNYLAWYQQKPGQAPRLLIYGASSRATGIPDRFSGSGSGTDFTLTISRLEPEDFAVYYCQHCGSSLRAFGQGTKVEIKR | 92.6%
K1-70 Fab (Fab, V domains shown) VH: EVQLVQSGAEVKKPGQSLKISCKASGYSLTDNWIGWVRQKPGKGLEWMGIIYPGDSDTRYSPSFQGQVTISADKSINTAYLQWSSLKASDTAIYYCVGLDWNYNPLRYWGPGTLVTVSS VL: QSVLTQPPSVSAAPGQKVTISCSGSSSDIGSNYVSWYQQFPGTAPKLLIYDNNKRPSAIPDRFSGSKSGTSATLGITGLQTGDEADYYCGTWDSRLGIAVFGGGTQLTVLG | 92.7%

Shift focus to the following entry.
Give its Inhibition of binding (%) value. Item: K1-18 Fab (Fab, V domains shown) VH: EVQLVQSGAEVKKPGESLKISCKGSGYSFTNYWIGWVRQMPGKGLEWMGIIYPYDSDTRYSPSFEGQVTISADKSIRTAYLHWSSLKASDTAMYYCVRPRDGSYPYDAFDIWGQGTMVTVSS VL: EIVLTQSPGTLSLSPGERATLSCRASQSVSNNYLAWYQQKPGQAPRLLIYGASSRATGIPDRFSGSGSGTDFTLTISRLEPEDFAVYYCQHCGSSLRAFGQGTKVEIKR
75.9%
